- Measurement Target: T1, human CD73 (huCD73) protein, antigen of the Biacore assay (human, UniProt P21589 27-547, limits assumed)
- T1 construct: also called human CD73 antigen
- T1 sequence (looked up): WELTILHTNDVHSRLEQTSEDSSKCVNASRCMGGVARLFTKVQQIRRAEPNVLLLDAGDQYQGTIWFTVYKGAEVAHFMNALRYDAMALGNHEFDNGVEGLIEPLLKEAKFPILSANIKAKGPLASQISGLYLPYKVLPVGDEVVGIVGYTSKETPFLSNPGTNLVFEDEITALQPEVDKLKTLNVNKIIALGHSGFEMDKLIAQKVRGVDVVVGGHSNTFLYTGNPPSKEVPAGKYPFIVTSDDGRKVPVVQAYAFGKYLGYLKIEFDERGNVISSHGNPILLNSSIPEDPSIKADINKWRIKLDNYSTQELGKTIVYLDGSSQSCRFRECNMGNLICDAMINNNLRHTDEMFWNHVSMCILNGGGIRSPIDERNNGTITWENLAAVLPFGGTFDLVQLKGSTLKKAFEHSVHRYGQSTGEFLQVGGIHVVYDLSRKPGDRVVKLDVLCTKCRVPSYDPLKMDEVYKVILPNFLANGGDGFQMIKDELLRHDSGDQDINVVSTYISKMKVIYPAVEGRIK
- Experiment Notes: SPR Biacore T200; antibody captured on Protein A chip, CD73 in flow; 1:1 Langmuir
Parameter: koff (s⁻¹)
The response must be a number in s⁻¹ with no trailing unit.

Answered examples (5):
INSERT INTO results (binder, unit_of_measure, reported_result) VALUES
  ('Hab127.41 (antibody, V domains shown, VL4 + VH1; recombined with human heavy and light constant regions) VH: EVQLVQSGAEVKKPGASVKVSCKASGYTFTAYFMNWVRQAPGQGLEWMGRIYHNNGDTFYSQKFKGRVTMTVDKSTSTVYMELSSLRSEDTAVYYCATSYVGDWGQGTTVTVSS VL: DIQMTQSPSSLSASVGDRVTITCRASQDIGDSLNWLQQKPGGALKRLIYATSSLDSGVPSRFSGSGSGSDYTLTISSLQPEDFATYYCLQYASFPWTFGGGTKVEIK', 's⁻¹', '4.39e-05'),
  ('Hab127.31g (antibody, V domains shown, VL3 + VH1g, HCDR2 hot-spot variant; full-length antibody) VH: EVQLVQSGAEVKKPGASVKVSCKASGYTFTAYFMNWVRQAPGQGLEWMGRIYHQNVDTFYSQKFKGRVTMTVDKSTSTVYMELSSLRSEDTAVYYCATSYVGDWGQGTTVTVSS VL: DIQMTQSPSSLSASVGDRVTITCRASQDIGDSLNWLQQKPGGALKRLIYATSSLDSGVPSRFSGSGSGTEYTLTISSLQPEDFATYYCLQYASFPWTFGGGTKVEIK', 's⁻¹', '5.18e-05'),
  ('Hab110.22 (antibody, V domains shown, VL2 + VH2; recombined with human heavy and light constant regions) VH: EVQLVQSGAEVKKPGASVKVSCKASGYTFTSYTMHWVRQAPGQRLEWMGYINPNSFYIEYNQKFKDRVTITADTSASTAYMELSSLRSEDTAVYYCARGDYDLFYDMDNWGQGTTVTVSS VL: DIQMTQSPSSLSASVGDRVTITCRASQDIGNSLNWLQQKPGKAIKRLIYATFRLDSGVPSRFSGSRSGTEYTLTISSLQPEDFATYYCQQYASFPWTFGGGTKVEIK', 's⁻¹', '4.95e-05'),
  ('Hab127.31i (antibody, V domains shown, VL3 + VH1i, HCDR2 hot-spot variant; full-length antibody) VH: EVQLVQSGAEVKKPGASVKVSCKASGYTFTAYFMNWVRQAPGQGLEWMGRIYHHNVDTFYSQKFKGRVTMTVDKSTSTVYMELSSLRSEDTAVYYCATSYVGDWGQGTTVTVSS VL: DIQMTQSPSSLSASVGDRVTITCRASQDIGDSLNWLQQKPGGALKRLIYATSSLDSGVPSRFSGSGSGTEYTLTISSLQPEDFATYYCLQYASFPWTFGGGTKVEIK', 's⁻¹', '7.93e-05'),
  ('Hab127.32 (antibody, V domains shown, VL3 + VH2; recombined with human heavy and light constant regions) VH: EVQLVQSGAEVKKPGASVKVSCKASGYTFTAYFMNWVMQAPGQGLEWMGRIYHNNGDTFYSQKFKGRVTMTVDKSTSTVYMELSSLRSEDTAVYYCATSYVGDWGQGTTVTVSS VL: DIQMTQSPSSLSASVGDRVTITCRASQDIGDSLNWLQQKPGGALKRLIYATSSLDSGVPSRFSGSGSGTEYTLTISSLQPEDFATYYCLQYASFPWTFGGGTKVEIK', 's⁻¹', '4.6e-05');

Quick one: koff for Hab110.25 (antibody, V domains shown, VL2 + VH5; recombined with human heavy and light constant regions) VH: EVQLVQSGAEVKKPGASVKVSCKASGYTFTSYTMHWVKQAPGQGLEWIGYINPNSFYIEYNQKFKDKATLTADTSASTAYMELSSLRSEDTAVYYCARGDYDLFYDMDNWGQGTTVTVSS VL: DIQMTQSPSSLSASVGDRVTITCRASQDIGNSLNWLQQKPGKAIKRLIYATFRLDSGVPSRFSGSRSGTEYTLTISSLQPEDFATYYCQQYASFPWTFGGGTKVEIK ?
7.79e-05

Every entry's value here was drawn from patent US20220220218A1.
